# System: mouse p16Ink4a+/- lung fibroblasts (INKBRITE, bleomycin-injured)
# procedureText: percentage of GFP+ (p16Ink4a+) fibroblasts among all cells in well; higher = less depletion of p16Ink4a+ cells, active = 20 or less
# testSettings: 1 µM; 3 days
Hit rate of the full screen: of about 1,800 compounds, about 50 (3%) showed activity. For the sample, actives were picked, then their nearest neighbours and some compounds at random.
observationType: percentage of GFP+

>  <compound>
C#Cc1cccc(Nc2ncnc3cc(OCCOC)c(OCCOC)cc23)c1 [Erlotinib]

>  <testValue>
7.35% (active)

$$$$
>  <compound>
CC(=O)Nc1ccc(C(=O)Nc2ccccc2N)cc1 [Tacedinaline]

>  <testValue>
34.9% (inactive)

$$$$
>  <compound>
COC(=O)CCSCc1ccc(-c2onc(C)c2NC(=O)OC(C)c2ccccc2Cl)cc1 (stereo not drawn)

>  <testValue>
43.9% (inactive)

$$$$
>  <compound>
CC(C)c1cc(-c2nnc(O)n2-c2ccc3c(ccn3C)c2)c(O)cc1O [Ganetespib]

>  <testValue>
4.48% (active)

$$$$
>  <compound>
Cc1[nH]c2ccccc2c1CCNC(=O)c1cccs1 [N-[2-(2-methyl-1H-indol-3-yl)ethyl]thiophene-2-carboxamide]

>  <testValue>
39.3% (inactive)

$$$$
>  <compound>
O=C(Nc1ccc(OC(F)(F)F)cc1)c1sccc1NCc1ccnc2ccccc12

>  <testValue>
30.4% (inactive)

$$$$
>  <compound>
CN(C)Cc1ccc(S(=O)(=O)n2ccc(/C=C/C(=O)NO)c2)cc1 [Resminostat]

>  <testValue>
37.1% (inactive)

$$$$
>  <compound>
C#Cc1cccc(Nc2ncnc3cc(OC)c(OCCCCCCC(=O)NO)cc23)c1

>  <testValue>
37.4% (inactive)

$$$$
>  <compound>
Cc1nc2n(c(=O)c1CCN1CCC(c3noc4cc(F)ccc34)CC1)CCCC2 [Risperidone]

>  <testValue>
42.6% (inactive)

$$$$
>  <compound>
N#Cc1ccc2[nH]c(O)c(-c3ccc(CN4CCOCC4)cn3)c2c1

>  <testValue>
40.8% (inactive)

$$$$
>  <compound>
Cc1nn(-c2ccccc2)c(C)c1/C=N/N1CCN(Cc2ccccc2)CC1

>  <testValue>
48.6% (inactive)

$$$$
>  <compound>
CC(C)(C)c1ccc(C(=O)CCCN2CCC(OC(c3ccccc3)c3ccccc3)CC2)cc1 [Ebastine]

>  <testValue>
56.5% (inactive)

$$$$
>  <compound>
CC(C)[C@H](C(=O)Nc1ccc(C(=O)NO)cc1)c1ccccc1

>  <testValue>
9.62% (active)

$$$$

###

# System: mouse p16Ink4a+/- lung fibroblasts (INKBRITE, bleomycin-injured)
# procedureText: percentage of GFP+ (p16Ink4a+) fibroblasts among all cells in well; higher = less depletion of p16Ink4a+ cells, active = 20 or less
# testSettings: 1 µM; 3 days
Where a name gives a salt, the structure may show the parent alone. About 50 (3%) of roughly 1,800 compounds showed activity. The sample as a whole holds a higher share of actives than the screen did.
percentage of GFP+ values, listed per item

>  <molecule>
Cc1nc(O)c(C#N)cc1-c1ccncc1

>  <tgt>
mouse p16Ink4a+/- lung fibroblasts (INKBRITE, bleomycin-injured)

>  <u>
%

>  <percentage of GFP+>
37.8

$$$$
>  <molecule>
CNCC[C@H](Oc1cccc2ccccc12)c1cccs1

>  <tgt>
mouse p16Ink4a+/- lung fibroblasts (INKBRITE, bleomycin-injured)

>  <u>
%

>  <percentage of GFP+>
33.8

$$$$
>  <molecule>
Nc1ccn([C@@H]2O[C@H](CO)[C@@H](O)C2(F)F)c(=O)n1

>  <tgt>
mouse p16Ink4a+/- lung fibroblasts (INKBRITE, bleomycin-injured)

>  <u>
%

>  <percentage of GFP+>
17.1

$$$$
>  <molecule>
Cc1cccc(CC(=O)N2CCc3c2ccc(-c2cn(C)c4ncnc(N)c24)c3F)n1

>  <tgt>
mouse p16Ink4a+/- lung fibroblasts (INKBRITE, bleomycin-injured)

>  <u>
%

>  <percentage of GFP+>
45

$$$$
>  <molecule>
CC[C@]1(O)C[C@@H]2CN(CCc3c([nH]c4ccccc34)[C@@](C(=O)OC)(c3cc4c(cc3OC)N(C=O)[C@@H]3C45CCN4CC=C[C@](CC)([C@H]45)[C@@H](OC(C)=O)[C@]3(O)C(=O)OC)C2)C1 (stereo not given in full)

>  <tgt>
mouse p16Ink4a+/- lung fibroblasts (INKBRITE, bleomycin-injured)

>  <u>
%

>  <percentage of GFP+>
16.5

$$$$
>  <molecule>
C=CCc1cc(OC)c(O)c(C(=O)NCCO)c1 [Alibendol]

>  <tgt>
mouse p16Ink4a+/- lung fibroblasts (INKBRITE, bleomycin-injured)

>  <u>
%

>  <percentage of GFP+>
42.5

$$$$
>  <molecule>
Oc1ccc(/C=C/c2cc(O)cc(O)c2)cc1

>  <tgt>
mouse p16Ink4a+/- lung fibroblasts (INKBRITE, bleomycin-injured)

>  <u>
%

>  <percentage of GFP+>
42.8

$$$$
>  <molecule>
CN[C@@H](C)C(=O)N[C@H](C(=O)N1CCC[C@H]1C(=O)Nc1snnc1-c1ccccc1)C1CCCCC1

>  <tgt>
mouse p16Ink4a+/- lung fibroblasts (INKBRITE, bleomycin-injured)

>  <u>
%

>  <percentage of GFP+>
21.9

$$$$
>  <molecule>
CS(=O)(=O)N1CCN(Cc2cc3nc(-c4cccc5[nH]ncc45)nc(N4CCOCC4)c3s2)CC1

>  <tgt>
mouse p16Ink4a+/- lung fibroblasts (INKBRITE, bleomycin-injured)

>  <u>
%

>  <percentage of GFP+>
36.8

$$$$
>  <molecule>
CO/N=C(/C(=O)N[C@@H]1C(=O)N2C(C(=O)O)=C(CSC(=O)c3ccco3)CS[C@H]12)c1csc(N)n1 [Ceftiofur HCl]

>  <tgt>
mouse p16Ink4a+/- lung fibroblasts (INKBRITE, bleomycin-injured)

>  <u>
%

>  <percentage of GFP+>
39.5

$$$$
>  <molecule>
CC(C)c1cc(C(=O)N2Cc3ccc(CN4CCN(C)CC4)cc3C2)c(O)cc1O

>  <tgt>
mouse p16Ink4a+/- lung fibroblasts (INKBRITE, bleomycin-injured)

>  <u>
%

>  <percentage of GFP+>
9.46

$$$$
>  <molecule>
COc1ccc([C@@H]2CC(=O)c3c(O)cc(O)cc3O2)cc1O

>  <tgt>
mouse p16Ink4a+/- lung fibroblasts (INKBRITE, bleomycin-injured)

>  <u>
%

>  <percentage of GFP+>
47.8

$$$$
>  <molecule>
COc1cc(OC)c(/C=C/S(=O)(=O)Cc2ccc(OC)c(NCC(=O)O)c2)c(OC)c1

>  <tgt>
mouse p16Ink4a+/- lung fibroblasts (INKBRITE, bleomycin-injured)

>  <u>
%

>  <percentage of GFP+>
27.9

$$$$
>  <molecule>
CCCCCCCCCC(=O)N[C@@H](Cc1c[nH]c2ccccc12)C(=O)N[C@H](CC(N)=O)C(=O)N[C@@H](CC(=O)O)C(=O)N[C@@H]1C(=O)NCC(=O)N[C@H](CCCN)C(=O)N[C@@H](CC(=O)O)C(=O)N[C@@H](C)C(=O)N[C@@H](CC(=O)O)C(=O)NCC(=O)N[C@H](CO)C(=O)N[C@@H]([C@@H](C)CC(=O)O)C(=O)N[C@@H](CC(=O)c2ccccc2N)C(=O)O[C@@H]1C

>  <tgt>
mouse p16Ink4a+/- lung fibroblasts (INKBRITE, bleomycin-injured)

>  <u>
%

>  <percentage of GFP+>
37.2

$$$$
>  <molecule>
COC(=O)[C@H](c1ccccc1Cl)N1CCc2sccc2C1

>  <tgt>
mouse p16Ink4a+/- lung fibroblasts (INKBRITE, bleomycin-injured)

>  <u>
%

>  <percentage of GFP+>
36.5

$$$$
>  <molecule>
Cc1c(CN2CCN(C(=O)[C@H](C)O)CC2)sc2c(N3CCOCC3)nc(-c3cnc(N)nc3)nc12

>  <tgt>
mouse p16Ink4a+/- lung fibroblasts (INKBRITE, bleomycin-injured)

>  <u>
%

>  <percentage of GFP+>
34.5

$$$$
>  <molecule>
O=C(O)c1ccc2c(c1)nc(Nc1cccc(Cl)c1)c1ccncc12

>  <tgt>
mouse p16Ink4a+/- lung fibroblasts (INKBRITE, bleomycin-injured)

>  <u>
%

>  <percentage of GFP+>
43.8

$$$$
>  <molecule>
CCCCc1nc2cc(/C=C/C(=O)NO)ccc2n1CCN(CC)CC

>  <tgt>
mouse p16Ink4a+/- lung fibroblasts (INKBRITE, bleomycin-injured)

>  <u>
%

>  <percentage of GFP+>
24.8

$$$$
>  <molecule>
CCCSc1nc(N[C@@H]2C[C@H]2c2ccc(F)c(F)c2)c2nnn([C@@H]3C[C@H](OCCO)[C@@H](O)[C@H]3O)c2n1

>  <tgt>
mouse p16Ink4a+/- lung fibroblasts (INKBRITE, bleomycin-injured)

>  <u>
%

>  <percentage of GFP+>
30.8

$$$$
>  <molecule>
CCOc1nc2cccc(C(=O)OC(C)OC(=O)OC3CCCCC3)c2n1Cc1ccc(-c2ccccc2-c2nn[nH]n2)cc1 (stereo not given)

>  <tgt>
mouse p16Ink4a+/- lung fibroblasts (INKBRITE, bleomycin-injured)

>  <u>
%

>  <percentage of GFP+>
44.8

$$$$
>  <molecule>
Nc1ccn([C@@H]2O[C@H](CO)[C@@H](O)[C@H]2O)c(=O)n1

>  <tgt>
mouse p16Ink4a+/- lung fibroblasts (INKBRITE, bleomycin-injured)

>  <u>
%

>  <percentage of GFP+>
48.9

$$$$
>  <molecule>
COc1ccc(-c2nc(N3CCOCC3)c3sc(CN(C)c4ncc(C(=O)NO)cn4)cc3n2)cn1 [Fimepinostat]

>  <tgt>
mouse p16Ink4a+/- lung fibroblasts (INKBRITE, bleomycin-injured)

>  <u>
%

>  <percentage of GFP+>
3.62

$$$$
>  <molecule>
Nc1nc(Cl)nc2c1ncn2[C@@H]1O[C@H](CO)[C@@H](O)[C@@H]1F

>  <tgt>
mouse p16Ink4a+/- lung fibroblasts (INKBRITE, bleomycin-injured)

>  <u>
%

>  <percentage of GFP+>
35.5

$$$$
>  <molecule>
Clc1cccc(Cl)c1NC1=NCCN1

>  <tgt>
mouse p16Ink4a+/- lung fibroblasts (INKBRITE, bleomycin-injured)

>  <u>
%

>  <percentage of GFP+>
51.5

$$$$
>  <molecule>
CC[C@H](C)[C@H]1O[C@]2(CC[C@@H]1C)C[C@@H]1C[C@@H](C/C=C(\C)[C@@H](O[C@H]3C[C@H](OC)[C@@H](O[C@H]4C[C@H](OC)[C@@H](O)[C@H](C)O4)[C@H](C)O3)[C@@H](C)/C=C/C=C3\CO[C@@H]4[C@H](O)C(C)=C[C@@H](C(=O)O1)[C@]34O)O2

>  <tgt>
mouse p16Ink4a+/- lung fibroblasts (INKBRITE, bleomycin-injured)

>  <u>
%

>  <percentage of GFP+>
37.9

$$$$
